# TEST: soluble on expression in E. coli; label from the status in PepcDB or PDB records
MEASUREMENT KIND: soluble on expression in E. coli

## Task Requested field: soluble on expression in E. coli. Item: MSLLIDKFGRPVTNLRISLTKECNLNCFYCHREGQQDGERTMTPEEIERIVRIASRLGIRNVKLTGGEPTVRPDIYEIIQRIRPYVVDLSMTTNGTTLYASAEKLKEAGLDRVNISLDTLDRKKYKMITGYDVLDQVLKGIRRATNLFYPVKLNMVVMRGINDDEIWDMIRFAGEVNAILQLIEIEVPREMENSQFFKDFFYPLKPLEEKFEKIAVEIRERKMHRRRKYFLPVDGKMVEVEVVRSMHNTTFCMNCTRLRLTADGYLKTCLLRKDDLIDILGPIRRGATDDELVKIFKRAVQLRKPYWINEGHHHHHH
## Result soluble

## Task Requested field: soluble on expression in E. coli. Item: MARHHHHHHMPEGKIIKALSGFYYVLDESEDSDKVIQCRGRGIFRKNKITPLVGDYVVYQAENDKEGYLMEIKERTNELIRPPICNVDQAVLVFSAVQPSFSTALLDRFLVLVEANDIQPIICITKMDLIEDQDTEDTIQAYAEDYRNIGYDVYLTSSKDQDSLADIIPHFQDKTTVFAGQSGVGKSSLLNAISPELGLRTNEISEHLGRGKHTTRHVELIHTSGGLVADTPGFSSLEFTDIEEEELGYTFPDIREKSSSCKFRGCLHLKEPKCAVKQAVEDGELKQYRYDHYVEFMTEIKDRKPRY
## Result soluble
